# credit: the RNAGym collection of RNA variant scans (doi:10.1093/nar/gkz1192)

Listed below: self-cleavage values for each entry.
B1: CPEB3 Ribozyme (parent)
chain: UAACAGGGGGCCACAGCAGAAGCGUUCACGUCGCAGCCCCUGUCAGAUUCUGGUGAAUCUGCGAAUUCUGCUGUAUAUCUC

Variants of: B1
test-protocol: self-cleavage, relative activity (ratio to wild type); higher = more cleavage; in vitro, sequencing
Field format: numeric only.

[[record]]
change = "C59U U69A"
obs_value = 0.41

[[record]]
change = "U67C C68A"
obs_value = 0.38

[[record]]
change = "C12G U67G"
obs_value = 0.12


Below: the item to evaluate.
Recorded result, U69G A77G , self-cleavage: 0.78
